All values here come from paper PMC6104039.

assay: Plasma P053 concentration after oral dosing, LC-MS/MS; type: in vivo, mice; conditions: C57BL6/J, mouse, plasma; single 5 mg/kg dose by oral gavage
ATTRIBUTE MEASURED: half-life (h)
I only need the number, in h, no unit after it.

Value of measured half-life for the entry C[C@@](N)(CO)CCc1ccc(OCc2ccc(Cl)c(Cl)c2)cc1 : 28

* * *

experiment: Plasma P053 concentration after oral dosing, LC-MS/MS; type: in vivo, mice; conditions: C57BL6/J, mouse, plasma; single 5 mg/kg dose by oral gavage; read-out: time of maximal plasma concentration
ATTRIBUTE MEASURED: Tmax

Value of measured Tmax for the entry C[C@@](N)(CO)CCc1ccc(OCc2ccc(Cl)c(Cl)c2)cc1 : 4 h

* * *

Below, each entry is listed with its recorded IC50.
Biological target: human CerS2 (Homo sapiens)
Sequence (Q96G23 1-380): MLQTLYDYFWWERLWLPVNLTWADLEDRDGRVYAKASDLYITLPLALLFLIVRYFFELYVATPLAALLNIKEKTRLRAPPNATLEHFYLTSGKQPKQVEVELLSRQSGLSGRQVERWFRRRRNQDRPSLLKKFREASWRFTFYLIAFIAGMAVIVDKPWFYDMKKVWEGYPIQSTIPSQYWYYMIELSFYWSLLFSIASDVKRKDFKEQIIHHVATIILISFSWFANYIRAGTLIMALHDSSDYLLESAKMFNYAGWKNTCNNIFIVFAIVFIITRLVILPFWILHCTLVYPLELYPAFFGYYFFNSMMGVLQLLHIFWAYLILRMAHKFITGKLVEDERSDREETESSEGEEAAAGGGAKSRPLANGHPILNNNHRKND
I only need the number, in µM, no unit after it.

{"COMPOUND": "C[C@@](N)(CO)CCc1ccc(OCc2ccc(Cl)c(Cl)c2)cc1", "READOUT UNIT": "µM", "IC50": 28.6}
{"COMPOUND": "C[C@@](N)(CO)CCc1ccc(OCc2ccccc2)cc1", "READOUT UNIT": "µM", "IC50": 14.5}
{"COMPOUND": "CCCC[C@@H](C)[C@@H](OC(=O)C[C@@H](CC(=O)O)C(=O)O)[C@H](C[C@@H](C)C[C@H](O)CCCC[C@@H](O)C[C@H](O)[C@H](C)N)OC(=O)C[C@@H](CC(=O)O)C(=O)O [FB1, reference compound]", "READOUT UNIT": "µM", "IC50": 0.15}

Proceeding to the next compound to report its IC50.
Value of measured IC50 for the entry CCCCCCCCc1ccc(CCC(N)(CO)CO)cc1 [FTY720, reference compound] : 19.1

* * *

molecular target: human CerS4 (Homo sapiens, UniProt Q9HA82)
Sequence (Q9HA82 whole entry): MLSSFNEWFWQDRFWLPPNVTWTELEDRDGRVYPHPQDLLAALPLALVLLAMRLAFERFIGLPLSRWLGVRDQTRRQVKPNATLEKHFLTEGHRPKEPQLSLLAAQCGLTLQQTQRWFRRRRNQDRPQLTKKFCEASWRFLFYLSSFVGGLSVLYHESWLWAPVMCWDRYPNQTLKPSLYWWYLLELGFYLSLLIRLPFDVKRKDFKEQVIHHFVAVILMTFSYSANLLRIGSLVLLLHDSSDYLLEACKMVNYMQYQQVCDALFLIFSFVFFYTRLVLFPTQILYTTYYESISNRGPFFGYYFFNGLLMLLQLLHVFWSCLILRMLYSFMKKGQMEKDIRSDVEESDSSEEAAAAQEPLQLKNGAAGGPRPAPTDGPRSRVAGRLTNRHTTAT
Below, each entry is listed with its recorded IC50.
I only need the number, in µM, no unit after it.

Worked examples follow.
{"COMPOUND": "CCCC[C@@H](C)[C@@H](OC(=O)C[C@@H](CC(=O)O)C(=O)O)[C@H](C[C@@H](C)C[C@H](O)CCCC[C@@H](O)C[C@H](O)[C@H](C)N)OC(=O)C[C@@H](CC(=O)O)C(=O)O [FB1, reference compound]", "MEASURED TARGET": "human CerS4 (Homo sapiens, UniProt Q9HA82)", "IC50, µM": 0.92}
{"COMPOUND": "CCCCCCCCc1ccc(CCC(N)(CO)CO)cc1 [FTY720, reference compound]", "MEASURED TARGET": "human CerS4 (Homo sapiens, UniProt Q9HA82)", "IC50, µM": 26}

Proceeding to the next compound to report its IC50.
Entry C[C@@](N)(CO)CCc1ccc(OCc2ccccc2)cc1 , human CerS4 (Homo sapiens, UniProt Q9HA82) data, IC50 value: 18

* * *

Below, each entry is listed with its recorded pIC50.
Target: CerS1 (Homo sapiens)
Sequence (P27544 1-350): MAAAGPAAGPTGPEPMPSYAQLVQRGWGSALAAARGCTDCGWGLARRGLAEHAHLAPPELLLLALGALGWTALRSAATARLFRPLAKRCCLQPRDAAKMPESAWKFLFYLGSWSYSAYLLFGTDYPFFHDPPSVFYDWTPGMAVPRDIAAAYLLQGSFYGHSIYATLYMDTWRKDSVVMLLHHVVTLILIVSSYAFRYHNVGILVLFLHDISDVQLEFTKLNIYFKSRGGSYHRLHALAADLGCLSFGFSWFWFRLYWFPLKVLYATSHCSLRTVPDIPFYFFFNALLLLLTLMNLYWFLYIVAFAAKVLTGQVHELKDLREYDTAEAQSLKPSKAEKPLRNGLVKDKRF
Assay: Ceramide synthase assay, HPLC-based with fluorescent NBD-dihydrosphingosine, C18:0-CoA; extracts of HEK293 cells expressing human CerS1
Type: biochemical
Design: host or cells: HEK293
Conditions: inhibitor range 10 nM–100 μM; read-out: IC50 hCerS1
Lab note: report pIC50 as minus log10 of the concentration in molar units, number only.

Worked examples follow.
{"COMPOUND": "C[C@@](N)(CO)CCc1ccc(OCc2ccc(Cl)c(Cl)c2)cc1", "MEASURED TARGET": "CerS1 (Homo sapiens)", "ATTRIBUTE MEASURED": "pIC50", "RECORDED VALUE": 6.27}
{"COMPOUND": "CCCC[C@@H](C)[C@@H](OC(=O)C[C@@H](CC(=O)O)C(=O)O)[C@H](C[C@@H](C)C[C@H](O)CCCC[C@@H](O)C[C@H](O)[C@H](C)N)OC(=O)C[C@@H](CC(=O)O)C(=O)O [FB1, reference compound]", "MEASURED TARGET": "CerS1 (Homo sapiens)", "ATTRIBUTE MEASURED": "pIC50", "RECORDED VALUE": 6.66}

Proceeding to the next compound to report its pIC50.
Value of measured pIC50 for the entry C[C@@](N)(CO)CCc1ccc(OCc2ccccc2)cc1 : 5.22

* * *

Below, each entry is listed with its recorded IC50.
target: human CerS6 (Homo sapiens)
Sequence (Q6ZMG9 whole entry): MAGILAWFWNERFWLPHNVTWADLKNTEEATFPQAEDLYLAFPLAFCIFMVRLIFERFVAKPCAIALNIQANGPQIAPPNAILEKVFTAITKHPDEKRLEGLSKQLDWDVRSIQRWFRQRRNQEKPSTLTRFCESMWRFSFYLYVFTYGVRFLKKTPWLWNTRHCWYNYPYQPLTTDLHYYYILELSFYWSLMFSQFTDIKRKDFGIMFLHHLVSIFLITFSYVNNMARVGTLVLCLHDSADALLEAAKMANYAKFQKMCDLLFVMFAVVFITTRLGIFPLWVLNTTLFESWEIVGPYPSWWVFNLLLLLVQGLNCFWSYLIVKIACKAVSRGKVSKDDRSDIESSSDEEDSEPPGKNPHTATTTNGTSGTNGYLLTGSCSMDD
I only need the number, in µM, no unit after it.

Worked examples follow.
{"COMPOUND": "C[C@@](N)(CO)CCc1ccc(OCc2ccc(Cl)c(Cl)c2)cc1", "IC50, µM": 11.4}
{"COMPOUND": "CCCC[C@@H](C)[C@@H](OC(=O)C[C@@H](CC(=O)O)C(=O)O)[C@H](C[C@@H](C)C[C@H](O)CCCC[C@@H](O)C[C@H](O)[C@H](C)N)OC(=O)C[C@@H](CC(=O)O)C(=O)O [FB1, reference compound]", "IC50, µM": 0.29}
{"COMPOUND": "C[C@@](N)(CO)CCc1ccc(OCc2ccccc2)cc1", "IC50, µM": 8.5}

Value of measured IC50 for the entry CCCCCCCCc1ccc(CCC(N)(CO)CO)cc1 [FTY720, reference compound] : 5.8

* * *

assay: Plasma P053 concentration after oral dosing, LC-MS/MS; type: in vivo, mice; conditions: C57BL6/J, mouse, plasma, oral; 5 mg/kg/day for 6 weeks
ATTRIBUTE MEASURED: concentration at 6 weeks

Value of measured concentration at 6 weeks for the entry C[C@@](N)(CO)CCc1ccc(OCc2ccc(Cl)c(Cl)c2)cc1 : ~300 nM

* * *

Below, each entry is listed with its recorded IC50.
Molecular target: murine CerS5 (Mus musculus, UniProt Q9D6K9)
Sequence (Q9D6K9 1-414): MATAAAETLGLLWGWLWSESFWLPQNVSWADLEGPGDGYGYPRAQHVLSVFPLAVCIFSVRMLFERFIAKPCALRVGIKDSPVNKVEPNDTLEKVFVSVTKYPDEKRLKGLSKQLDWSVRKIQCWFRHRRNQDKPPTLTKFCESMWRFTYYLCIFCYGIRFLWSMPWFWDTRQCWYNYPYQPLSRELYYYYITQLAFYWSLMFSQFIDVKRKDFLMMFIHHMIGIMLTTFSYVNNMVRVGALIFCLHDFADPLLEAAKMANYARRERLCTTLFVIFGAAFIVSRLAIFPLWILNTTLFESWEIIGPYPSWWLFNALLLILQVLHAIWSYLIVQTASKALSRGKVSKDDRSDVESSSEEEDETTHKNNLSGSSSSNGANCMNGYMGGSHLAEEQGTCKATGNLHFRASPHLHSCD
I only need the number, in µM, no unit after it.

{"COMPOUND": "CCCC[C@@H](C)[C@@H](OC(=O)C[C@@H](CC(=O)O)C(=O)O)[C@H](C[C@@H](C)C[C@H](O)CCCC[C@@H](O)C[C@H](O)[C@H](C)N)OC(=O)C[C@@H](CC(=O)O)C(=O)O [FB1, reference compound]", "READOUT UNIT": "µM", "IC50": 0.5}

Value of measured IC50 for the entry C[C@@](N)(CO)CCc1ccc(OCc2ccc(Cl)c(Cl)c2)cc1 : 7.2

Value of measured IC50 for the entry C[C@@](N)(CO)CCc1ccc(OCc2ccccc2)cc1 : 24.3

Value of measured IC50 for the entry CCCCCCCCc1ccc(CCC(N)(CO)CO)cc1 [FTY720, reference compound] : 15
